Saccharomyces cerevisiae JCM1499: reported MIC for various compounds.

Request body: readout MIC, system Saccharomyces cerevisiae JCM1499, query CC=CC1OC1(C)c1cc(=O)c2c(C)cc3c(c2o1)C(=O)c1c(ccc(C2CC(C)(N(C)C)C(OC(C)=O)C(C)O2)c1O)C3=O (centres unmarked) [HP530D] . Return the value. 6.3 µg/mL

// fetch Saccharomyces cerevisiae JCM1499 MIC for CC=C(C)c1cc(=O)c2c(C)cc3c(c2o1)C(=O)c1c(ccc(C2CC(C)(N(C)C)C(OC(C)=O)C(C)O2)c1O)C3=O (centres unmarked) [HP530G] > 100 µg/mL

Request body: readout MIC, system Saccharomyces cerevisiae JCM1499, query CC(=O)OC1C(C)OC(c2ccc3c(c2O)C(=O)c2c(cc(C)c4c(=O)cc(C5(C)OC5C)oc24)C3=O)CC1(C)N(C)C (centres unmarked) [HP530E] . Return the value. > 100 µg/mL

Record lookup: for Saccharomyces cerevisiae JCM1499, what MIC belongs to CC=CC1OC1(C)c1cc(=O)c2c(C)cc3c(c2o1)C(=O)c1c(ccc(C2CC(C)(N(C)C)C(O)C(C)O2)c1O)C3=O (centres unmarked) [Deacetyl HP530D] ? 50 µg/mL

Find MIC (Saccharomyces cerevisiae JCM1499) for the entry Cc1cc2c(c3oc(C4(C)OC4C)cc(=O)c13)C(=O)c1c(ccc(C3CC(C)(N(C)C)C(O)C(C)O3)c1O)C2=O (centres unmarked) [Deacetyl HP530E] > 100 µg/mL

====

Give MIC for every item shown.

What MIC appears in the records for this compound with Staphylococcus epidermidis JCM2414? CC=CC1OC1(C)c1cc(=O)c2c(C)cc3c(c2o1)C(=O)c1c(ccc(C2CC(C)(N(C)C)C(O)C(C)O2)c1O)C3=O (centres unmarked) [Deacetyl HP530D] 6.3 µg/mL

Form: Entry = CC=CC1OC1(C)c1cc(=O)c2c(C)cc3c(c2o1)C(=O)c1c(ccc(C2CC(C)(N(C)C)C(OC(C)=O)C(C)O2)c1O)C3=O (centres unmarked) [HP530D] | System = Staphylococcus epidermidis JCM2414 | MIC = ____ 3.2 µg/mL

Lab request: please report MIC under test system Staphylococcus epidermidis JCM2414 for CC(=O)OC1C(C)OC(c2ccc3c(c2O)C(=O)c2c(cc(C)c4c(=O)cc(C5(C)OC5C)oc24)C3=O)CC1(C)N(C)C (centres unmarked) [HP530E] > 100 µg/mL

Find the measured MIC: item CC=C(C)c1cc(=O)c2c(C)cc3c(c2o1)C(=O)c1c(ccc(C2CC(C)(N(C)C)C(OC(C)=O)C(C)O2)c1O)C3=O (centres unmarked) [HP530G] , target or system Staphylococcus epidermidis JCM2414. 25 µg/mL

Notebook: pull reported MIC for Staphylococcus epidermidis JCM2414, entry Cc1cc2c(c3oc(C4(C)OC4C)cc(=O)c13)C(=O)c1c(ccc(C3CC(C)(N(C)C)C(O)C(C)O3)c1O)C2=O (centres unmarked) [Deacetyl HP530E] 6.3 µg/mL

====

test system: W98 cell line; experiment: Cytotoxicity (IC100) against W98 cell line; format: cell-based; settings: Homo sapiens; W98 cells, final 10% methanol solutions; read-out: IC100 (100% growth inhibiting concentration)
For each entry below, report its IC100 value.

Form: Entry = CC=CC1OC1(C)c1cc(=O)c2c(C)cc3c(c2o1)C(=O)c1c(ccc(C2CC(C)(N(C)C)C(O)C(C)O2)c1O)C3=O (centres unmarked) [Deacetyl HP530D] | System = W98 cell line | IC100 = ____ 0.00015 µg/mL

Record lookup: for W98 cell line, what IC100 belongs to CC=CC1OC1(C)c1cc(=O)c2c(C)cc3c(c2o1)C(=O)c1c(ccc(C2CC(C)(N(C)C)C(OC(C)=O)C(C)O2)c1O)C3=O (centres unmarked) [HP530D] ? 0.0006 µg/mL

# get_value(readout= IC100, system= W98 cell line) for CC=C(C)c1cc(=O)c2c(C)cc3c(c2o1)C(=O)c1c(ccc(C2CC(C)(N(C)C)C(OC(C)=O)C(C)O2)c1O)C3=O (centres unmarked) [HP530G] 0.1 µg/mL

Value wanted: IC100 (W98 cell line) of entry CC(=O)OC1C(C)OC(c2ccc3c(c2O)C(=O)c2c(cc(C)c4c(=O)cc(C5(C)OC5C)oc24)C3=O)CC1(C)N(C)C (centres unmarked) [HP530E] 0.0006 µg/mL

Identify the measured IC100 of Cc1cc2c(c3oc(C4(C)OC4C)cc(=O)c13)C(=O)c1c(ccc(C3CC(C)(N(C)C)C(O)C(C)O3)c1O)C2=O (centres unmarked) [Deacetyl HP530E] for W98 cell line. 0.00015 µg/mL
